B1: LINE1-mini (parent)
chain: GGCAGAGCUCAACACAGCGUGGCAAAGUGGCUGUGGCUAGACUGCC

- Variants of: B1
- assay.text: self-cleavage, relative activity (ratio to wild type); higher = more cleavage; in vitro, sequencing; the parent is a self-cleaving ribozyme
measured.metric: self-cleavage

As a guide, the following entries are already answered.
>  <mutation.descriptor>
A16U U20C

>  <observed.measurement>
0.26

$$$$
>  <mutation.descriptor>
G7U C10U

>  <observed.measurement>
0.04

$$$$
>  <mutation.descriptor>
C13U U43A

>  <observed.measurement>
0.1

$$$$
>  <mutation.descriptor>
G19C G36A

>  <observed.measurement>
0.09

$$$$

Field: self-cleavage. Fill in for each record below.
1. C3G C13G
2. G19A A24G
3. A4U C31U
4. A16G A25G
5. A26C G40U

Reply text:
1: 0.55; 2: 1.45; 3: 0.1; 4: 0.04; 5: 0.09
